This listing pairs compounds with measured MIC Enterococcus fecalis.
- System: Enterococcus faecalis (ATCC 29212)
- Format: cell-based
- measurement setup: ATCC 29212; TFA salt; Mueller-Hinton broth, 10^5 cfu/mL, 18 h 37°C; triplicate
Where a SMILES comes first, the peptide text is derived from it. The star is where a group is joined. Octanoyl = CCCCCCCC(=O)*

compound="CCCCCCCC(=O)N[C@@H](CCCCN)C(=O)NCC(=O)N[C@@H](CCCCN)C(N)=O [C8-KGK-NH2] (Octanoyl-Lys-Gly-Lys-NH2)" measured_value=">2000 µg/mL"

Prompt line: Request the reported MIC Enterococcus fecalis associated with CCCCCCCCCC(=O)N[C@@H](CCCCN)C(=O)N[C@@H](CCCCN)C(=O)N[C@@H](CCCCN)C(N)=O
Response line: >2000 µg/mL

Prompt line: Subsequent entry: CCCCCCCC(=O)N[C@@H](CCCCN)C(N)=O
Response line: >1000 µg/mL

Prompt line: Subsequent entry: CCCCCCCCCC(=O)N[C@@H](CCCCN)C(N)=O
Response line: >2000 µg/mL

Prompt line: Subsequent entry: CCCCCCCCCC(=O)N[C@@H](CCCCN)C(=O)N[C@@H](CCCCN)C(N)=O
Response line: >2000 µg/mL

Prompt line: Subsequent entry: CCCCCCCC(=O)N[C@@H](CCCCN)C(=O)NCC(N)=O [C8-KG-NH2] (Octanoyl-Lys-Gly-NH2)
Response line: >2000 µg/mL

Prompt line: Subsequent entry: CCCCCCCC(=O)N[C@@H](CCCCN)C(=O)N[C@@H](CCCCN)C(N)=O
Response line: >1000 µg/mL

Prompt line: Subsequent entry: CCCCCCCC(=O)N[C@@H](CCCCN)C(=O)N[C@@H](CCCCN)C(=O)N[C@@H](CCCCN)C(N)=O
Response line: >2000 µg/mL
